Provenance of the data: patent US12637432B2

- tgt: ACK1 (Homo sapiens)
- Construct: purchased Reaction Biology
- assayInfo: ACK1 IC50 (Table 1, assay not specified)
- Format: biochemical
measuredParameter: IC50 (nM)

OCCn1cc(-c2ccc(Nc3ncc(Cl)c(NC[C@H]4CCCO4)n3)cc2F)cn1 ... 46.1
Fc1cc(Nc2ncc(Cl)c(NC[C@H]3CCCO3)n2)ccc1OCCN1CCCC1 ... 60.1
O=C(COc1cccc2c1C(=O)N(C1CCC(=O)NC1=O)C2=O)NCCCCN1CCN(c2ccc(Nc3ncc(Cl)c(NC[C@H]4CCCO4)n3)cc2)CC1 (stereo partly drawn) ... 56.4
Fc1cc(Nc2ncc(Cl)c(NC[C@H]3CCCO3)n2)ccc1-c1cnn(C2CCOCC2)c1 ... 78.7
COCCn1cc(-c2ccc(Nc3ncc(Cl)c(NC[C@H]4CCCO4)n3)cc2F)cn1 ... 137
Clc1cnc(Nc2ccc(OCCN3CCCC3)cc2)nc1NC[C@H]1CCCO1 ... 56.5

###

- tgt: ACK1 (Homo sapiens)
- Construct: purchased Reaction Biology
- assayInfo: Reaction Biology 33P Hotspot assay
- Type: biochemical
measuredParameter: IC50 (nM)

COc1cc(Nc2ncc(Cl)c(NCC3CCOCC3)n2)ccc1-c1cnn(C)c1 ... 27.6
Cn1cc(-c2ccc(Nc3ncc(Cl)c(NC[C@H]4CCCO4)n3)cc2)cn1 ... 128
Cn1cc(-c2ccc(Nc3ncc(Cl)c(NCC4CCOCC4)n3)cc2)cn1 ... 29.1
CN1CCC(n2cc(Nc3ncc(Cl)c(NCC4CCOCC4)n3)cn2)CC1 ... 138
Clc1cnc(Nc2cnn(C3CCOCC3)c2)nc1NCC1CCOCC1 ... 90
COc1cc(Nc2ncc(Cl)c(NC[C@H]3CCCO3)n2)ccc1-c1cnn(C)c1 ... 40.4
Cn1cc(-c2ccc(Nc3ncc(Cl)c(NCC4CCOCC4)n3)cc2F)cn1 ... 31
CC(C)Oc1cc(-c2cnn(C)c2)ccc1Nc1ncc(Cl)c(NCC2CCOCC2)n1 ... 232
COc1cc(-n2cccn2)ccc1Nc1ncc(Cl)c(NCC2CCOCC2)n1 ... 34.9
CC(C)Oc1cc(Nc2ncc(Cl)c(N[C@H](C)C3CCOCC3)n2)ccc1C1CCN(C)CC1 ... 40.8
CN1CCN(c2ccc(Nc3ncc(Cl)c(NCC4CCOCC4)n3)c(O)c2)CC1 ... 55.3
CN1CCN(Cc2ccc(Nc3ncc(Cl)c(NCC4CCOCC4)n3)cc2)CC1 ... 69.1
Clc1cnc(Nc2ccc(OCC3CCOCC3)cc2)nc1NC[C@H]1CCCO1 ... 69

###

The entries below are paired with their reported inhibition at 0.1 µM.
- tgt: ACK1 (Homo sapiens, UniProt Q07912)
- Construct: purchased Reaction Biology
- Sequence (Q07912 whole entry): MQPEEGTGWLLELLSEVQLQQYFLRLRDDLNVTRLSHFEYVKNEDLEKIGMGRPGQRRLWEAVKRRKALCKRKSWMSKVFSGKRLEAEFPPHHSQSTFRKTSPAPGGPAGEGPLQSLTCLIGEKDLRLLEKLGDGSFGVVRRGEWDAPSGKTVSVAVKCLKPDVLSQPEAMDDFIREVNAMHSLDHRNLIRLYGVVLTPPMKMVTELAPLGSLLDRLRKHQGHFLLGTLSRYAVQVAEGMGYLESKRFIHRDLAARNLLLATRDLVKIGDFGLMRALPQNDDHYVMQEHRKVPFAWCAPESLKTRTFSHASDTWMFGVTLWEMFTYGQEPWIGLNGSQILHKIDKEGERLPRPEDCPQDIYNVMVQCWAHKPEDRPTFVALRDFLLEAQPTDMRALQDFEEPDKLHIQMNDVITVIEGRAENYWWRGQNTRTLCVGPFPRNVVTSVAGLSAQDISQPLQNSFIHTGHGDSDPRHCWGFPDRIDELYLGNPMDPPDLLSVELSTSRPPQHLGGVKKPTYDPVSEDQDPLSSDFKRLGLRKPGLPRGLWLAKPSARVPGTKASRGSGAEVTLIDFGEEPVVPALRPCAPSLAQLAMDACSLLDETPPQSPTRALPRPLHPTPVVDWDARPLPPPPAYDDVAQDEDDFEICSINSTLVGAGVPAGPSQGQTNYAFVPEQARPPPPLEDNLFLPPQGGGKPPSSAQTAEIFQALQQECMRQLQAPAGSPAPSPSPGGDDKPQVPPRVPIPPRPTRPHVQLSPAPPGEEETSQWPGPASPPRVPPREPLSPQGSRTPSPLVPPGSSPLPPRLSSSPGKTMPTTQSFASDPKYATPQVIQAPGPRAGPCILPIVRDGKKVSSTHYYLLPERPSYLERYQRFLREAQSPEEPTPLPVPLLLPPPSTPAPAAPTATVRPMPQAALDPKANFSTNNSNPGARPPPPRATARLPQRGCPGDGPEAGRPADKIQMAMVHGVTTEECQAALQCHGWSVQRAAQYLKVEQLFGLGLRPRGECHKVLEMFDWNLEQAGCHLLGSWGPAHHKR
- assayInfo: ACK1 ELISA % inhibition at 100 nM
- Format: biochemical
measuredParameter: inhibition at 0.1 µM (%)

COc1cc(N2CCN(C)CC2)ccc1Nc1ncc(C)c(Nc2ccc(Cl)c(NS(=O)(=O)C(C)(C)C)c2)n1 ... 98.7
COc1cc(N2CCN(C)CC2)ccc1Nc1ncc(C)c(Nc2cccc(NS(=O)(=O)C(C)(C)C)c2)n1 ... 100
COc1cc(N2CCN(C)CC2)ccc1Nc1ncc(Cl)c(N[C@@H](C)c2ccc(Cl)cc2)n1 ... 17.5
COc1cc(N2CCN(C)CC2)ccc1Nc1ncc(Cl)c(NCc2ccc(C(F)(F)F)cc2)n1 ... 31.1
COc1cc(N2CCN(C)CC2)ccc1Nc1ncc(Cl)c(N[C@H](C)c2ccc(Cl)cc2)n1 ... 50.2
COc1cc(N2CCN(C)CC2)ccc1Nc1ncc(Cl)c(N(CCc2ccccc2)CC2CCCO2)n1 (stereo not shown) ... 38.5
CN1CCN(c2ccc(Nc3ncc(Cl)c(N(CCc4ccccc4)CC4CCCO4)n3)cc2)CC1 (stereo not shown) ... 32
